Where do these numbers come from? They come from patent US9163021B2.

Biological target: TRKA (Homo sapiens (Human))
Sequence (P04629 441-796): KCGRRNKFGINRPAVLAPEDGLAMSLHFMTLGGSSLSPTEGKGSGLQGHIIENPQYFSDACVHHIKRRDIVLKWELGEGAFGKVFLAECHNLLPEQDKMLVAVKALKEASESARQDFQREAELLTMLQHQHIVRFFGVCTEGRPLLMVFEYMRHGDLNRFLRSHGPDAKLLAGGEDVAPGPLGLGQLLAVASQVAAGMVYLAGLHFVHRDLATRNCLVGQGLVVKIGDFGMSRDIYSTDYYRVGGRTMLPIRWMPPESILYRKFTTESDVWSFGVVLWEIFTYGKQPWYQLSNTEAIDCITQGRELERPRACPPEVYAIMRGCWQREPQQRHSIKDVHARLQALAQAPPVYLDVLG
Test: Isolated TRK enzyme assay (HTRF KinEASE-TK), PV3144 TrkA enzyme assay
Type: biochemical
Conditions: arithmetic mean where more than one reading
measured.endpoint: IC50 (nM)
Could you give me the number in nM? Just the number is fine.

Name the reported IC50 value associated with the compound Cc1nc(CC(=O)Nc2cc(C(=O)c3cn(C(C)C)c4ccncc34)ccn2)c(C2CC2)o1 [Example 174]
51.4

I'd like to know its IC50. The compound in question is Cc1oc(C2CC2)nc1CC(=O)Nc1cc(C(=O)c2cn(C3COC3)c3ccncc23)ccn1 [Example 200]
174

Consider the compound CC(C)n1cc(C(=O)c2ccnc(NC(=O)Cc3ccccc3Cl)c2)c2cnccc21 [Example 105] and give its measured IC50.
108

GET /values?readout=IC50&item= CC(C)c1cn(CC(=O)Nc2cncc(C(=O)c3cn(C(C)CO)c4ccncc34)c2)nn1 (single isomer, unassigned) [Example 62]
54.3

Recorded IC50 of O=C(Cc1ccc(F)cc1F)Nc1cc(C(=O)c2cn(C3COC3)c3ccncc23)ccn1 [Example 198] , please.
105

Look at this compound and give its reported IC50. CC(CO)n1cc(C(=O)c2cncc(NC(=O)Cn3cc(C(F)(F)F)nn3)c2)c2cncc(F)c21 (single isomer, unassigned) [Example 220]
160

What IC50 value was documented for this compound, CC(C)n1cc(C(=O)c2ccnc(NC(=O)Cn3cccn3)c2)c2cnccc21 [Example 166] ?
955

Which IC50 is listed for CC(C)n1cc(C(=O)c2cncc(NC(=O)Cc3ccccc3)c2)c2cnccc21 [Example 130] ?
161

Name the recorded IC50 for CC(C)n1cc(C(=O)c2ccnc(NC(=O)Cc3nc(C4CC4)oc3C3CC3)c2)c2cnccc21 [Example 79] .
26.1

What does the data say about its IC50? Entry: Cc1oc(C2CC2)nc1CC(=O)Nc1cc(C(=O)c2cn(C(C)C)c3ccncc23)ccn1 [Example 78]
15.8

Which IC50 value is on record for COc1ccc(CC(=O)Nc2cc(C(=O)c3cn(C(C)C)c4ccncc34)ccn2)cc1 [Example 101] ?
51.7

Quick check: IC50 of CC(CO)n1cc(C(=O)c2cncc(NC(=O)Cc3ccc(Cl)cn3)c2)c2cncc(F)c21 (single isomer, unassigned) [Example 211] ?
93.3

Field request: IC50 | item: Cc1oc(C2CC2)nc1CC(=O)Nc1cncc(C(=O)c2cn(C(C)C)c3ccncc23)c1 [Example 19]
26.4

What value of IC50 has been reported for the following compound? Cc1cc(C(F)(F)F)nn1CC(=O)Nc1cncc(C(=O)c2cn(C(C)CO)c3c(F)cncc23)c1 (single isomer, unassigned) [Example 228]
18.5

For CC(C)(CO)n1cc(C(=O)c2cc(NC(=O)Cn3ccc(C4CC4)n3)ccn2)c2cnccc21 [Example 234] , what is its reported IC50?
16.5
